Measured values drawn from the supplement of paper PMC11061612 for this set.

This section presents molecules with their documented combination Emax values.
Test system: MDST8 (Colorectal Carcinoma)
Experiment: combination Emax (second highest fraction inhibited in the dose matrix, 72 h); higher = more inhibition; extreme values may be limits of the assay
Give a plain numeric answer without units written out.

As a guide, the following entries are already answered.
Noted for CN(CCO)CC[C@H](CSc1ccccc1)Nc1ccc(S(=O)(=O)NC(=O)c2ccc(N3CCC([C@@H](O)c4ccccc4-c4ccc(Cl)cc4)CC3)cc2)cc1S(=O)(=O)C(F)(F)F [AZD4320] + Cc1cc2ncnn2cc1Nc1ncc2c(n1)n(C1CCOCC1)c(=O)n2C [AZD7648] (first compound max 1 µM, 7x7, partner max 10 µM) : its combination Emax reads 0.821

For this molecule ( COc1cccc(OCCCN)c1-c1cc(Nc2cnc(C#N)cn2)n[nH]1 [Prexasertib] + C=CCn1c(=O)c2cnc(Nc3ccc(N4CCN(C)CC4)cc3)nc2n1-c1cccc(C(C)(C)O)n1 [AZD1775] (first compound max 1 µM, partner max 1 µM) ), measured combination Emax is 0.954

New cases:
Measured combination Emax of CN(CCO)CC[C@H](CSc1ccccc1)Nc1ccc(S(=O)(=O)NC(=O)c2ccc(N3CCC([C@@H](O)c4ccccc4-c4ccc(Cl)cc4)CC3)cc2)cc1S(=O)(=O)C(F)(F)F [AZD4320] + C=CCn1c(=O)c2cnc(Nc3ccc(N4CCN(C)CC4)cc3)nc2n1-c1cccc(C(C)(C)O)n1 [AZD1775] (first compound max 1 µM, partner max 1 µM) : 0.992

====

System: NCI-H1666 (Lung Adenocarcinoma);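 also: after 72 h of two-drug dosing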
Assay: Bliss excess, mean over the matrix (fraction); higher = more synergy
# label = yes (1) if Bliss excess >= -0.05 else no (0)

Check the entry CN(CCO)CC[C@H](CSc1ccccc1)Nc1ccc(S(=O)(=O)NC(=O)c2ccc(N3CCC([C@@H](O)c4ccccc4-c4ccc(Cl)cc4)CC3)cc2)cc1S(=O)(=O)C(F)(F)F [AZD4320] + CS(=O)(=O)CCNCc1ccc(-c2ccc3ncnc(Nc4ccc(OCc5cccc(F)c5)c(Cl)c4)c3c2)o1 [Lapatinib] (first compound max 1 µM, 7x7, partner max 10 µM) : does Bliss excess equal or exceed -0.05? yes (1)

Does the molecule NC1(C(=O)N[C@@H](CCO)c2ccc(Cl)cc2)CCN(c2ncnc3[nH]ccc23)CC1 [Capivasertib] + C[C@@H]1COCCN1C2=NC(=NC(=C2)C3(CC3)[S@](=N)(=O)C)C4=C5C=CNC5=NC=C4 [AZD6738] (first compound max 10 µM, 7x7, partner max 10 µM) have recorded Bliss excess that is -0.05 or more? yes (1)

Dear colleague, could you confirm whether COc1nnc2ccc(N3CCC(c4ccc(OCCN5CCN(C)C(=O)[C@H]5C)cc4)CC3)nn12 [AZD5153] + CC1(C)CCC(CN2CCN(c3ccc(C(=O)NS(=O)(=O)c4ccc(NCC5CCOCC5)c([N+](=O)[O-])c4)c(Oc4cnc5[nH]ccc5c4)c3)CC2)=C(c2ccc(Cl)cc2)C1 [Venetoclax] (first compound max 1 µM, 7x7, partner max 1 µM) has Bliss excess at or above -0.05? no (0)

# next molecule below
Item C=CCn1c(=O)c2cnc(Nc3ccc(N4CCN(C)CC4)cc3)nc2n1-c1cccc(C(C)(C)O)n1 [AZD1775] + Nc1ccn([C@@H]2O[C@H](CO)[C@@H](O)C2(F)F)c(=O)n1 [Gemcitabine] (first compound max 1 µM, partner max 0.3 µM) with Bliss excess of -0.05 or above? no (0)
